# toxicity measurements, system: Vero E6 cells
Structures can show the parent of a compound that is named as a salt.

- COMPOUND: "Cc1nc(Nc2ncc(C(=O)Nc3c(C)cccc3Cl)s2)cc(N2CCN(CCO)CC2)n1"
  ENDPOINT_NAME: "toxicity"
  RECORDED_RESULT: "low toxicity"
- COMPOUND: "Nc1ccn([C@@H]2O[C@H](CO)[C@@H](O)C2(F)F)c(=O)n1 [Gemcitabine hydrochloride]"
  ENDPOINT_NAME: "toxicity"
  RECORDED_RESULT: "low toxicity"
- COMPOUND: "Cc1ccc(NC(=O)c2ccc(CN3CCN(C)CC3)cc2)cc1Nc1nccc(-c2cccnc2)n1 [Imatinib mesylate]"
  ENDPOINT_NAME: "toxicity"
  RECORDED_RESULT: "low toxicity"
- COMPOUND: "Cc1cn(-c2cc(NC(=O)c3ccc(C)c(Nc4nccc(-c5cccnc5)n4)c3)cc(C(F)(F)F)c2)cn1"
  ENDPOINT_NAME: "toxicity"
  RECORDED_RESULT: "low toxicity"

Form: Entry = CN(C)CCCN1c2ccccc2Sc2ccc(Cl)cc21 [Chlorpromazine hydrochloride] | System = Vero E6 cells | toxicity = ____
low toxicity

Please state recorded toxicity (tested on Vero E6 cells) of CN(C)CCCN1c2ccccc2Sc2ccc(C(F)(F)F)cc21 [Triflupromazine hydrochloride]
low toxicity

Write down the reported toxicity of CN(C)CCOc1ccc(/C(=C(/CCCl)c2ccccc2)c2ccccc2)cc1 [Toremifene citrate] , test system: Vero E6 cells.
low toxicity

Value source: patent US10434116B2
